# credit: patent US20180186897A1

molecular target: erythrocytes infected with P. falciparum field isolate 9106; experiment: flow cytometry, staining of IEs
result.type: % parasite recognition (%)
Answers are plain numbers, in %.

>>> assay_value("MGD39 (antibody) VH: QVRLQESGPGLVKPSGTLSLTCTVSGGSISAYRWWSWVRQAPGKGLEWIGQVYNDGNTNYNPSLKGRVAMSVDKSKNRFSLRLASVTAADTAVYYCATISPLRPQSDTDDLPRPSISAEPGTVIPLGSHVTFVCRGPIGVQTFRLERERRSLYSDTEDVSQVSPFASEARFRIDSVSEGNAGPYRCIYYKDRKWSDQSDYLELLVKGEDVTWALPQSQLAPRACPQEELNISTDIFSMNVWGKGTTVTVSS VL: AIRMTQSPASLSASIGDRVTITCRTSHDVGNYLDWYQQKPGKAPKLLIHGASTLQTGVPSRFSGSGAGTDFTLNITCLQSGDFAMYYCQQYYSSPPGFGQGTRLEIK")
13.7

Query :: Please report the recorded % parasite recognition for MGC26 (antibody) VH: EVQLVDSGGGLVQPGGSLRLSCAASGFTFSTYWMTWVRQTPGKGLEWVASIKQDGTERYYVDSVKGRFIISRDNAKNSLYLQMHSLRAEDTAVYYCVRDRFCRDHMHIEEDLPRPSISPEPATVIPLGSHVTIVCRGPVGVETFRLQKESRSLYNDTEDVSQPSPSESEARFRIDSVSEGHGGLYRCLYYKSSKWSEQSDYLEMLVKGEDVTWALFPYCGGDGEESDYYMDVWGKGTTVTVSS VL: DIQLTQSPSTLSASVGDRVTISCRASQRLSRSLAWYQQRPRKAPNLLIYKASPLEIGGPSRFTGSGSGTEFTLTISSLQPDDSATYYCQQYSNYSYSFGQGTKLEIR .
Result :: 8.5
